The reported numbers originate from patent US20030068675.

Target: T1, ZFP SBS#1085 (synthetic)
T1 chain: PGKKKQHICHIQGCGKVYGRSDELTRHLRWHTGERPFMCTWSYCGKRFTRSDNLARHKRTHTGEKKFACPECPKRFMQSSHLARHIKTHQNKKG
Assay: EMSA
Conditions: tags: MBP fusion
pKd: −log10 of the molar value.

[
  {
    "binder": "GGTGAGGCG (dsDNA) DNA 1: GGTGAGGCG DNA 2: CGCCTCACC",
    "pKd": 9.34
  }
]
